The measured values listed here are drawn from patent US20250288704A1.

ASSAY_TEXT: Biodistribution in Jurkat tumor-bearing CB-17 SCID mice
Type: in vivo
COND: female, CB-17 SCID, mouse, in vivo, iv, total radioactivity, Spleen; 1 h p.i.; Jurkat xenograft, CB-17 SCID female mice; read-out: % iD/g Spleen
Positions of bridges follow the written chain, without caps; N, C: chain ends. Non-standard residues stand in square brackets, D forms with d. Residues, ends and D or L forms follow the SMILES beside them. Groups on a side chain read outwards from the residue. Chains are numbered I, II in the order given. *: point of attachment. X6 = CN1/C(=C/C=C/C=C/C2=[N+](CCCCCC(=O)*)c3ccc(S(=O)(=O)[O-])cc3C2(C)C)C(C)(C)c2cc(S(=O)(=O)O)ccc21; Tyr(3-I) = N[C@@H](Cc1ccc(O)c(I)c1)C(=O)O; 2Nal = N[C@@H](Cc1ccc2ccccc2c1)C(=O)O; d2Nal = N[C@H](Cc1ccc2ccccc2c1)C(=O)O; dNMeOrn = CN[C@H](CCCN)C(=O)O; Mercaptoacetyl = O=C(CS)*; 4Abz = Nc1ccc(C(=O)O)cc1; dDap = NC[C@@H](N)C(=O)O
Each entry below carries its reported tissue uptake at 1 h.
Numeric only. Scale: %ID/g

{"MOLECULE": "C[C@@H](NC(=O)[C@@H](CCCNC(=N)N)NC(=O)[C@@H](Cc1c[nH]cn1)NC(=O)[C@@H](CO)NC(=O)[C@@H](CO)NC(=O)[C@@H](CO)NC(=O)CS)C(=O)Nc1ccc(C(=O)NCCC[C@@H]2C(=O)N[C@@H](CCCNC(=N)N)C(=O)N[C@@H](Cc3ccc4ccccc4c3)C(=O)NCC(=O)N[C@H](Cc3ccc(O)cc3)C(=O)N2C)cc1 [Tc-CXCR4-5] (I: Mercaptoacetyl-[dS][dS][dS][dH][dR][dA][4Abz] / II: cyclo([dY][dNMeOrn]R[2Nal]G); amide I:C-II:2)", "RESULT_UNITS": "%ID/g", "tissue uptake at 1 h": 8.47}

According to the records, this molecule C[C@@H](NC(=O)[C@@H](CCCNC(=N)N)NC(=O)[C@@H](CN)NC(=O)CCCCC[N+]1=C(/C=C/C=C/C=C2/N(C)c3ccc(S(=O)(=O)O)cc3C2(C)C)C(C)(C)c2cc(S(=O)(=O)[O-])ccc21)C(=O)Nc1ccc(C(=O)NCCC[C@@H]2C(=O)N[C@@H](CCCNC(=N)N)C(=O)N[C@H](Cc3ccc4ccccc4c3)C(=O)NCC(=O)N[C@@H](Cc3ccc(O)c(I)c3)C(=O)N2C)cc1 [CXCR4-OI-2] (cyclo([Tyr(3-I)][dNMeOrn]([4Abz-dA-dR-dDap-X6])R[d2Nal]G)) displays tissue uptake at 1 h of 16.1

---

Listed below: tissue uptake at 48 h values for each entry.
ASSAY_TEXT: Biodistribution in Jurkat tumor-bearing CB-17 SCID mice
Assay type: in vivo
COND: female, CB-17 SCID, mouse, in vivo, iv, total radioactivity, % iD/g Kidney
Non-standard residues stand in square brackets, D forms with d. Residues, ends and D or L forms follow the SMILES beside them. Groups on a side chain read outwards from the residue. *: point of attachment. DOTA = O=C(O)CN1CCN(CC(=O)O)CCN(CC(=O)*)CCN(CC(=O)O)CC1; dTyr(3-I) = N[C@H](Cc1ccc(O)c(I)c1)C(=O)O; 2Nal = N[C@@H](Cc1ccc2ccccc2c1)C(=O)O; dNMeOrn = CN[C@H](CCCN)C(=O)O; 4Abz = Nc1ccc(C(=O)O)cc1; dDap = NC[C@@H](N)C(=O)O
I only need the number, in %ID/g, no unit after it.

{"MOLECULE": "C[C@@H](NC(=O)[C@@H](CCCNC(=N)N)NC(=O)[C@@H](CN)NC(=O)CN1CCN(CC(=O)O)CCN(CC(=O)O)CCN(CC(=O)O)CC1)C(=O)Nc1ccc(C(=O)NCCC[C@@H]2C(=O)N[C@@H](CCCNC(=N)N)C(=O)N[C@@H](Cc3ccc4ccccc4c3)C(=O)NCC(=O)N[C@H](Cc3ccc(O)c(I)c3)C(=O)N2C)cc1 [CXCR4-DOTA-4 [Lu]] (cyclo([dTyr(3-I)][dNMeOrn]([4Abz-dA-dR-dDap-DOTA])R[2Nal]G))", "tissue uptake at 48 h, %ID/g": 5.31}

Okay, now this molecule:
The recorded tissue uptake at 48 h for entry C[C@@H](NC(=O)[C@@H](CCCNC(=N)N)NC(=O)[C@@H](CN)NC(=O)CN1CCN(CC(=O)O)CCN(CC(=O)O)CCN(CC(=O)O)CC1)C(=O)Nc1ccc(C(=O)NCCC[C@@H]2C(=O)N[C@@H](CCCNC(=N)N)C(=O)N[C@@H](Cc3ccc4ccccc4c3)C(=O)NCC(=O)N[C@H](Cc3ccc(O)cc3)C(=O)N2C)cc1 [CXCR4-DOTA-3 [Lu]] (cyclo([dY][dNMeOrn]([4Abz-dA-dR-dDap-DOTA])R[2Nal]G)) equals 4.47
